Listed here are molecules together with their documented viability at 28.5 h, 10 µM.
assay: in vitro; settings: human, hela cells, % viability
# value in %; strip the unit string

# annotated cases, reported viability at 28.5 h, 10 µM shown
INSERT INTO measurements (molecule, recorded_number) VALUES
  ('COc1ccc(C(=O)Nc2ccc3c(c2)nc2n3CCN(Cc3ccccc3)C2)cc1', 82.5),
  ('OCCNc1nccnc1Cl', 114),
  ('C=CCNc1nccnc1-c1cccnc1', 101),
  ('CC(C)Nc1nc2ccccc2nc1SCCOc1ccccc1', 89.8),
  ('O=C(O)c1cccc(-n2cc(-c3ccc(F)cc3F)nn2)c1', 95.9),
  ('Cc1noc(C)c1C(=O)NC1Cc2ccccc2C1', 91.4),
  ('CC(C)(C)c1cc2cc(NC(=O)C3CC3)ccc2[nH]1', 115),
  ('O=C(O)CCNC1=Nc2ccccc2CCC1', 101),
  ('O=C1NC(CCSC2=NCN=N2)Oc2ccccc21 (stereo not drawn)', 107),
  ('COc1ccc(NC(=O)CSc2ncnc3c2oc2ccccc23)c(OC)c1', 87);

Prompt: Please give the measured viability at 28.5 h, 10 µM for this molecule: `CCOC(=O)c1ccc(Cn2c(-c3ccccc3)nnc2-c2ccccc2)o1`
Completion: 87.8

Prompt: What do you have for `CS(=O)(=O)Nc1cc2ccccc2c(-c2ccsc2)n1` ?
Completion: 89.7

Prompt: What do you have for O=C(O)c1ccc(NC(CC(=O)c2ccccc2)c2ccc(Br)cc2)cc1 (stereo not drawn) [CBK266195C] ?
Completion: 109

Prompt: What do you have for Cc1nc(C)n(CCNC(=O)C(C)Cc2cccs2)n1 (stereo not drawn) ?
Completion: 79.7

Prompt: What do you have for Cn1cc(C2CCCCCN2S(=O)(=O)c2ccc(F)cc2)cn1 (stereo not drawn) ?
Completion: 91.7

---

test: in vitro; conditions: human, hela cells, % viability, bulk resorufin, single well
Measured Quantity: viability at 28.5 h, 10 µM

# annotated cases, reported viability at 28.5 h, 10 µM shown
INSERT INTO results (molecule, result) VALUES
  ('NCCc1c[nH]c2ccc(OCc3ccccc3)cc12 [CBK260980C]', '84.9%'),
  ('O=C(COc1ccc(/C=C2\C(=O)NC(=O)N(c3ccc(O)cc3)C2=O)cc1Cl)Nc1ccccc1 [CBK265425]', '84.4%');

Field: next molecule
Prompt: Please give the measured viability at 28.5 h, 10 µM for this molecule: FC(F)(F)c1ccc(COc2cccc(-c3ccc4c(c3)COC3(CCNCC3)O4)c2)cc1 [CBK105868]
Completion: 83.7%

---

test: in vitro; conditions: human, hela cells, % viability
Measured Quantity: viability at 28.5 h, 10 µM (%)
# value in %; strip the unit string

# annotated cases, reported viability at 28.5 h, 10 µM shown
INSERT INTO results (compound, output_unit, recorded_number) VALUES
  ('CCOc1ccc(-c2cncc(NCCc3ccncc3)n2)cc1 [CBK065774]', '%', 94.6),
  ('Cc1ccc2nc(Cl)c(/C=N/NC(=O)CN3CCOCC3)cc2c1 [CBK262731]', '%', 91.2),
  ('CN(Cc1nc(-c2cccnc2)no1)S(=O)(=O)c1ccc2ccccc2c1 [CBK267385]', '%', 87.2),
  ('CS(=O)(=O)N1CCC(C(=O)NC(c2ccc(F)cc2)c2ccccn2)CC1 (stereo not shown) [CBK059696]', '%', 94.9),
  ('CN(C(=O)C1CCCO1)c1nc2c(s1)CCc1occc1-2 (stereo not shown) [CBK283483]', '%', 88.8),
  ('Cc1c(Cl)cccc1S(=O)(=O)Nc1ccc(C(=O)O)cc1 [CBK034050]', '%', 86.4);

Prompt: Please give the measured viability at 28.5 h, 10 µM for this compound: Cn1c(=S)[nH]c2c(-c3ccccc3)c[nH]c2c1=O [CBK288488]
Completion: 103

Prompt: What do you have for O=C(NCc1ccccn1)c1ccc(-n2ccnc2)c(-n2cccc2)c1 [CBK285347] ?
Completion: 80.8

Prompt: What do you have for Cc1nn(C)c(C)c1CC(=O)NC1CCN(c2c(F)cccc2F)C1 (stereo not shown) [CBK306307] ?
Completion: 83.2

Prompt: What do you have for CC(=O)Nc1ccc(NCc2nc(CC(C)C)no2)c(C(F)(F)F)c1 [CBK305799] ?
Completion: 110

---

Listed here are compounds together with their documented viability at 28.5 h, 10 µM.
experiment: in vitro; details: human, hela cells, % viability
# value in %; strip the unit string

# annotated cases, reported viability at 28.5 h, 10 µM shown
INSERT INTO measurements (compound, measured_quantity, recorded_number) VALUES
  ('COc1cc(NC(=O)c2nc[nH]n2)c(OC)cc1Cl', 'viability at 28.5 h, 10 µM', 93),
  ('Cn1ncc2c1C(=O)NC1c3ccccc3C(=O)N21 (stereo not shown)', 'viability at 28.5 h, 10 µM', 94.3),
  ('COC(=O)CCc1ccc(S(=O)(=O)N2CCCN(Cc3c[nH]c4ccc(Cl)cc34)CC2)cc1', 'viability at 28.5 h, 10 µM', 99.2),
  ('COc1cc(-c2cncc(NCCCO)n2)cc(OC)c1OC', 'viability at 28.5 h, 10 µM', 95.5),
  ('CCOC(=O)c1ccc(-c2ccc(OC)cc2)cc1', 'viability at 28.5 h, 10 µM', 95.2),
  ('COc1ccc(C2SCCCS2)cc1C(C)(C)C', 'viability at 28.5 h, 10 µM', 105),
  ('COc1ccc(Nc2cc(Cl)ccc2C(=O)Nc2ccncc2)cn1', 'viability at 28.5 h, 10 µM', 96.3),
  ('CC(C)(N)CN(Cc1ccc(Cl)cc1)C(=O)Nc1ccccc1-c1ccccc1', 'viability at 28.5 h, 10 µM', 105);

Prompt: Please give the measured viability at 28.5 h, 10 µM for this compound: `CC(C)(C)OC(=O)N1CCC(Oc2cncc(Cl)n2)CC1`
Completion: 98

Prompt: What do you have for `COc1ccc(-c2[nH]c(=S)ncc2-c2ccccc2)c(O)c1` ?
Completion: 91.5

---

experiment: in vitro; conditions: human, hela cells, % viability
Measured Quantity: viability at 28.5 h, 10 µM (%)
# value in %; strip the unit string

# annotated cases, reported viability at 28.5 h, 10 µM shown
INSERT INTO results (compound, output_unit, recorded_number) VALUES
  ('Brc1ccc(C2(c3nnc(C4CCCO4)o3)CCOCC2)cc1 (centres unmarked)', '%', 117),
  ('CCCCCOc1ccc(-c2ccc(Cl)nn2)cc1', '%', 83.7),
  ('Fc1ccccc1CN(CCCn1ccnc1)Cc1ccco1', '%', 109);

Prompt: Please give the measured viability at 28.5 h, 10 µM for this compound: Cc1cccc(OCCN2C(=O)CC(Cc3cnn(C)c3)C2=O)c1 (centres unmarked)
Completion: 99.7

Prompt: What do you have for Cc1ccc2nc3c(cc2c1)CNCC(C)O3 (centres unmarked) ?
Completion: 85.9

---

test system: C. trachomatis L2/434/Bu expressing GFP (CTL2-GFP); construct: L2/434/Bu GFP intracellular growth in HeLa cells; experiment: microbe, parasite or virus in culture; design: C. trachomatis total inclusion area by high-content imaging, normalised to DMSO; settings: Chlamydia trachomatis, HeLa, 28.5 h; total inclusion area; read-out: % of control remaining
Rule: measured activity at 5 µM below 20% gets Yes; anything equal to or greater than 20% gets No.

Prompt: Lab log: compare recorded activity at 5 µM with 20%; is it strictly lower for `CC(=O)NC[C@H]1CN(c2ccc3c(c2)CCN(C(=O)Cc2ccccc2)CC3)C(=O)O1` ?
Completion: Yes

Prompt: What do you have for O=C(Nc1ccccc1N1CCCNCC1)c1ccc2ccccc2c1 [CBK038927T] ?
Completion: Yes

Prompt: What do you have for O=C(Nc1nccs1)c1cc(C2CCN(C(=O)CC3CCCCC3)C2)nc2ccccc12 (stereo not shown) ?
Completion: No

Prompt: What do you have for `COC(=O)CCc1ccc(-c2cnc(N)c(-c3ccc(O)cc3)n2)cc1` ?
Completion: No

Prompt: What do you have for CN1CCOC(CNc2nc(-c3ccncc3)nc3c2CCC3)C1 (stereo not shown) ?
Completion: No

Prompt: What do you have for `CNC(=S)N1CCN(c2nsc3ccccc23)CC1` ?
Completion: Yes

---

assay: in vitro; settings: human, hela cells, % viability
Rule: measured viability at 28.5 h, 10 µM below 90% gets class 1; anything equal to or greater than 90% gets class 0.

Record excerpt, results attached:
INSERT INTO assay_data (compound, label_class) VALUES
  ('CCN(CC)CCCOC1(C)SC(NC2CCCCCC2)=NC1=O (centres unmarked)', 'class 1'),
  ('CC(C)CNc1nc(-c2ccc(F)cc2)cnc1N', 'class 0');

Prompt: Lab log: compare recorded viability at 28.5 h, 10 µM with 90%; is it strictly lower for `COc1ccc(C(C)C)cc1-c1cnc2nc(N)ccc2c1` ?
Completion: class 0

Prompt: What do you have for `C(=N\c1ccc2c(c1)OCCOCCOc1cc(/N=C/c3ccccc3)ccc1OCCOCCO2)/c1ccccc1` ?
Completion: class 0

Prompt: What do you have for `O=C(N/N=C/c1ccccc1)c1ccccn1` ?
Completion: class 0

Prompt: What do you have for `N#C/C(=C/c1ccc(Sc2nc3ccccc3[nH]2)o1)c1ccc(C(=O)O)cc1` ?
Completion: class 0

Prompt: What do you have for `Cc1noc(C)c1CS(=O)(=O)Cc1ccc(Cl)cc1` ?
Completion: class 1

Prompt: What do you have for CCCc1nnc2sc(C3CCC(=O)N(CC(C)C)C3)nn12 (centres unmarked) ?
Completion: class 0
